B1: minF1; a variant is named by its letters at N, in order (parent)
chain: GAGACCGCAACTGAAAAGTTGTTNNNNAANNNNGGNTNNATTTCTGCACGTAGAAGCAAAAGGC

variants of: B1; test: fraction ligated after 30 min (ligated reads / total reads); higher = more ligase activity; conditions: with F1*subA RNA substrate (template-directed ligation), 42 °C
Listed variants paired with reported fraction ligated

Observe how each entry below is paired with its result.
GAGACCGCAACTGAAAAGTTGTTATAAAATGGTGGGTTAATTTCTGCACGTAGAAGCAAAAGGC [ATAATGGTGTA]    0.00235
GAGACCGCAACTGAAAAGTTGTTTCAAAATGAGGGTTGAATTTCTGCACGTAGAAGCAAAAGGC [TCAATGAGTGA]    0.0012
GAGACCGCAACTGAAAAGTTGTTCGAAAGGATGGGTTGAATTTCTGCACGTAGAAGCAAAAGGC [CGAAGATGTGA A29G]    0.00313
GAGACCGCAACTGAAAAGTTGTTATCGAATGGAGGGTTGATTTCTGCACGTAGAAGCAAAAGGC [ATCGTGGAGTG]    0.00496
GAGACCGCAACTGAAAAGTTGTTATCAGAAATAGGGTTGATTTCTGCACGTAGAAGCAAAAGGC [ATCAAATAGTG A28G]    0.00674
GAGACCGCAACTGAAAAGTTGTTTGAATGGATGGGTTGAATTTCTGCACGTAGAAGCAAAAGGC [TGAAGATGTGA A28T A29G]    0.00314
GAGACCGCAACTGAAAAGTTGTTACAGAAAGGAGGTTGAATTTCTGCACGTAGAAGCAAAAGGC [ACAGAGGATGA]    0.00191
GAGACCGCAACTGAAAAGTTGTTATCAGAAAGATGGGTTGTTTCTGCACGTAGAAGCAAAAGGC [ATCAAAGAGTT A28G G34T T37G A40G]    0.00143
GAGACCGCAACTGAAAAGTTGTTATCAGAGGAGGGTTGAATTTCTGCACGTAGAAGCAAAAGGC [ATCAGGAGTGA A28G]    0.0026
GAGACCGCAACTGAAAAGTTGTTTCAAAATGGGGGTTGAATTTCTGCACGTAGAAGCAAAAGGC [TCAATGGGTGA]    0.00124

Query: Output measured fraction ligated for this item: GAGACCGCAACTGAAAAGTTGTTACAAAAGATGGGTTGAATTTCTGCACGTAGAAGCAAAAGGC [ACAAGATGTGA]
Reply: 0.00207

Query: Report measured fraction ligated; entry is GAGACCGCAACTGAAAAGTTGTATAGAAAGATGGGTTGAATTTCTGCACGTAGAAGCAAAAGGC [TAGAGATGTGA T23A]
Reply: 0.00319

Query: Specify reported fraction ligated for the variant shown: GAGACCGCAACTGAAAAGTTGTTTCAGAATGGAGGTTGAATTTCTGCACGTAGAAGCAAAAGGC [TCAGTGGATGA]
Reply: 0.00185

Query: Complete the entry with fraction ligated for GAGACCGCAACTGAAAAGTTGTTATGAAATGATGGGTTGATTTCTGCACGTAGAAGCAAAAGGC [ATGATGATGTG]
Reply: 0.00639

Query: Read off the recorded fraction ligated for GAGACCGCAACTGAAAAGTTGTAAGAATGGATGGGTTGAATTTCTGCACGTAGAAGCAAAAGGC [AGAAGATGTGA T23A A28T A29G]
Reply: 0.00449

Query: Respond only with fraction ligated recorded for GAGACCGCAACTGAAAAGTTGTTTAGAAATGGATGGTTAATTTCTGCACGTAGAAGCAAAAGGC [TAGATGGAGTA G34T]
Reply: 0.00584

Query: Give fraction ligated for the following variant: GAGACCGCAACTGAAAAGTTGTTACAGAAATGATGGTTAATTTCTGCACGTAGAAGCAAAAGGC [ACAGATGAGTA G34T]
Reply: 0.00197

Data origin: the supplement of paper PMC6755084
